For each of the molecules below, state its kd Human.
- test.system: T1, hBCMA (human BCMA) (Homo sapiens, UniProt Q02223)
- T1 sequence (Q02223 1-184): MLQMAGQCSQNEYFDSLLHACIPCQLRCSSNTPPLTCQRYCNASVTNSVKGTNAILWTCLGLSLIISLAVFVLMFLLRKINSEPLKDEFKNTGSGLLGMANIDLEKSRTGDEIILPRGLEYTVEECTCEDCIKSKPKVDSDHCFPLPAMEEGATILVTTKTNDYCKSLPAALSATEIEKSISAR
- test.details: Kinetics and affinity of hBCMA/human IgG interactions by SPR (Bio-Rad Proteon XPR36)
- Format: binding
- run.parameters: human BCMA, 37° C.
Numbers only, in s⁻¹.

Take a look at these entries with their results.
molecule | kd Human / s⁻¹
COMBO_Rd4_0.6 nM_C11: anti-BCMA antibody (antibody, V domains shown) VH: EVQLLESGGGLVQPGGSLRLSCAASGFTFSSYPMSWVRQAPGKGLEWVSAALGSGGSTYYADSVKGRFTISRDNSKNTLYLQMNSLRAEDTAVYYCARYWPMSLWGQGTLVTVSS VL: EIVLTQSPGTLSLSPGERATLSCRASQSVSVRYLAWYQQKPGQAPRLLMYDASIRATGIPDRFSGSGSGTDFTLTISRLEPEDFAVYYCQQYGSWPITFGQGTKVEIK | 0.00106
A02_Rd4_6 nM_C08: anti-BCMA antibody (antibody, V domains shown) VH: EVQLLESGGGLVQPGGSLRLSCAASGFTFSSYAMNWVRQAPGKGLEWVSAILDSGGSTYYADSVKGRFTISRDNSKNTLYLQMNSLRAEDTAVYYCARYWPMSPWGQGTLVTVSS VL: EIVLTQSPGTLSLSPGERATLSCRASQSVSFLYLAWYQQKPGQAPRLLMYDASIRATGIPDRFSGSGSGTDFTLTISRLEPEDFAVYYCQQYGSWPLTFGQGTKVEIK | 0.000738
C01_Rd4_6 nM_C20: anti-BCMA antibody (antibody, V domains shown) VH: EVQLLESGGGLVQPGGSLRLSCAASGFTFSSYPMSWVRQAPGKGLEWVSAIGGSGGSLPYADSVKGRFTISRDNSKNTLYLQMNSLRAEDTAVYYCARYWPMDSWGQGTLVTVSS VL: EIVLTQSPGTLSLSPGERATLSCRASQSVSPLYLAWYQQKPGQAPRLLIYDASSRAPGIPDRFSGSGSGTDFTLTISRLEPEDFAVYYCQQYSAFPLTFGQGTKVEIK | 0.00276
A02_Rd4_6 nM_C07: anti-BCMA antibody (antibody, V domains shown) VH: EVQLLESGGGLVQPGGSLRLSCAASGFTFSSYAMNWVRQAPGKGLEWVSAIGGSGGSLPYADSVKGRFTISRDNSKNTLYLQMNSLRAEDTAVYYCARYWPMDSWGQGTLVTVSS VL: EIVLTQSPGTLSLSPGERATLSCRASQSVSPYYLAWYQQKPGQAPRLLMYDASIRATGIPDRFSGSGSGTDFTLTISRLEPEDFAVYYCQQYERWPLTFGQGTKVEIK | 0.000189
COMBO_Rd4_0.6 nM_C19: anti-BCMA antibody (antibody, V domains shown) VH: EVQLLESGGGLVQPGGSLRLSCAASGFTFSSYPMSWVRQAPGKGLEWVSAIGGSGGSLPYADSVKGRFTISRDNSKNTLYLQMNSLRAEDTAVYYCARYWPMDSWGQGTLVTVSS VL: EIVLTQSPGTLSLSPGERATLSCRASQSVSAVYLAWYQQKPGQAPRLLMYDASIRATGIPDRFSGSGSGTDFTLTISRLEPEDFAVYYCQQYRAWPLTFGQGTKVEIK | 0.000155

For each of the molecules below, state kd Human.
1. C01_Rd4_6 nM_C26: anti-BCMA antibody (antibody, V domains shown) VH: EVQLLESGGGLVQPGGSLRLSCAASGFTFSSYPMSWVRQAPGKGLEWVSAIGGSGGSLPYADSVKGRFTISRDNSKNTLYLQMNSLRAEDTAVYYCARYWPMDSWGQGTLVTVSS VL: EIVLTQSPGTLSLSPGERATLSCRASQSVSALYLAWYQQKPGQAPRLLIYDASSRAPGIPDRFSGSGSGTDFTLTISRLEPEDFAVYYCQQYSAWPLTFGQGTKVEIK
2. COMBO_Rd4_0.6 nM_C02: anti-BCMA antibody (antibody, V domains shown) VH: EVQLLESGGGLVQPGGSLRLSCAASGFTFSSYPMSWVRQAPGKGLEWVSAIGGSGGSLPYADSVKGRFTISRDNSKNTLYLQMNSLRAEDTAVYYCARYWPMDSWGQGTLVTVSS VL: EIVLTQSPGTLSLSPGERATLSCRASIAVSSTYLAWYQQKPGQAPRLLMYDASIRATGIPDRFSGSGSGTDFTLTISRLEPEDFAVYYCQQYMVWPLTFGQGTKVEIK

1. 0.00136
2. 0.000185

For each of the molecules below, state kd Human.
1. C01_Rd4_6 nM_C09: anti-BCMA antibody (antibody, V domains shown) VH: EVQLLESGGGLVQPGGSLRLSCAASGFTFSSYPMSWVRQAPGKGLEWVSATVGSGGSIGYADSVKGRFTISRDNSKNTLYLQMNSLRAEDTAVYYCARYWPMDSWGQGTLVTVSS VL: EIVLTQSPGTLSLSPGERATLSCACSQSVSSTYLAWYQQKPGQAPRLLIYDASSRAPGIPDRFSGSGSGTDFTLTISRLEPEDFAVYYCQQYSAWPLTFGQGTKVEIK
2. C01_Rd4_0.6 nM_C16: anti-BCMA antibody (antibody, V domains shown) VH: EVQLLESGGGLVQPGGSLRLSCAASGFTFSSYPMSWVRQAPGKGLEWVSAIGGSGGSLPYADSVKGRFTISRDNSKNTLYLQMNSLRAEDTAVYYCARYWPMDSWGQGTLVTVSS VL: EIVLTQSPGTLSLSPGERATLSCRASQSVSSTYLAWYQQKPGQAPRLLIYDASSRAPGIPDRFSGSGSGTDFTLTISRLEPEDFAVYYCQQYSSWPLTFGQGTKVEIK

0.0128
0.0063
